tested on: corn (Zea mays); test: Test A postemergence; type: in vivo; details: 125 g ai/ha, postemergence; visual rating after approx. 10 d, 0 to 100 scale (0 no effect, 100 complete control)
In this section we review reported Plant response rating, Corn values for a set of compounds.
Output spec: single numeric token, no unit.

Examples from the recorded data:
1) CN1CC(c2ccc(C(F)(F)F)cc2)C(C(=O)Nc2ccccc2S(C)(=O)=O)C1=O (centres unmarked) [Compound 624]	0
2) O=C1NCC(c2ccc(Oc3ccccc3)cc2)C1C(=O)Nc1cccc(F)c1F (racemic) [Compound 536]	0
3) Cc1cccc(C2CN(C)C(=O)C2C(=O)Nc2cccc(F)c2F)c1 (centres unmarked) [Compound 667]	70
4) Cc1ccc(C2CNC(=O)C2C(=O)Nc2ccccc2F)cc1C(F)(F)F (racemic) [Compound 678]	10
5) CCc1cccc(C2CN(C)C(=O)C2C(=O)Nc2ccccc2F)c1 (centres unmarked) [Compound 567]	70
6) Cc1ccc(C2CNC(=O)C2C(=O)Nc2cccc(F)c2F)cc1C(F)(F)F (centres unmarked) [Compound 642]	50

Identify the measured Plant response rating, Corn of O=C1NCC(c2cc(C(F)(F)F)ccc2F)C1C(=O)Nc1cccc(F)c1F (centres unmarked) [Compound 594] for corn (Zea mays).
60

Checklist item: Plant response rating, Corn tested on corn (Zea mays), entry CN1CC(c2c(F)cccc2F)C(C(=O)Nc2cccc(F)c2F)C1=O (centres unmarked) [Compound 547] , value?
0
